Cited source: BigSolDB 2.1

# Protocol Conditions: in n-butanol, 288.15 K
Measured Parameter: solubility (mole fraction)
Answers are plain numbers.

Tell me the measured solubility (mole fraction) of CCC(C)n1ncn(-c2ccc(N3CCN(c4ccc(OC[C@H]5CO[C@](Cn6cncn6)(c6ccc(Cl)cc6Cl)O5)cc4)CC3)cc2)c1=O (mixture of isomers) , please.
1.43e-05

###

# Protocol Conditions: in n-propanol, 288.15 K
Measured Parameter: solubility (mole fraction)
One number for each entry.

For CCC(C)n1ncn(-c2ccc(N3CCN(c4ccc(OC[C@H]5CO[C@](Cn6cncn6)(c6ccc(Cl)cc6Cl)O5)cc4)CC3)cc2)c1=O (mixture of isomers) , what is its reported solubility (mole fraction)?
1.24e-05

###

# Protocol Conditions: in methanol, 303.15 K
Measured Parameter: solubility (mole fraction)

Given the molecule CCC(C)n1ncn(-c2ccc(N3CCN(c4ccc(OC[C@H]5CO[C@](Cn6cncn6)(c6ccc(Cl)cc6Cl)O5)cc4)CC3)cc2)c1=O (mixture of isomers) , what is its reported solubility (mole fraction)?
4.71e-05

###

# Protocol Conditions: in methanol, 298.15 K
Measured Parameter: solubility (mole fraction)

Can you share its solubility (mole fraction)? I mean this compound: CCC(C)n1ncn(-c2ccc(N3CCN(c4ccc(OC[C@H]5CO[C@](Cn6cncn6)(c6ccc(Cl)cc6Cl)O5)cc4)CC3)cc2)c1=O (mixture of isomers)
3.78e-05

###

# Protocol Conditions: in dichloromethane, 303.15 K
Measured Parameter: solubility (mole fraction)
Give bare numbers.

Return reported solubility (mole fraction); argument: CCC(C)n1ncn(-c2ccc(N3CCN(c4ccc(OC[C@H]5CO[C@](Cn6cncn6)(c6ccc(Cl)cc6Cl)O5)cc4)CC3)cc2)c1=O (mixture of isomers)
0.0347

###

# Protocol Conditions: in ethanol, 303.15 K
Measured Parameter: solubility (mole fraction)
Give bare numbers.

Record request: solubility (mole fraction) value, item CCC(C)n1ncn(-c2ccc(N3CCN(c4ccc(OC[C@H]5CO[C@](Cn6cncn6)(c6ccc(Cl)cc6Cl)O5)cc4)CC3)cc2)c1=O (mixture of isomers)
2.44e-05

###

# Protocol Conditions: in ethanol, 298.15 K
Measured Parameter: solubility (mole fraction)
Give bare numbers.

Request the reported solubility (mole fraction) associated with CCC(C)n1ncn(-c2ccc(N3CCN(c4ccc(OC[C@H]5CO[C@](Cn6cncn6)(c6ccc(Cl)cc6Cl)O5)cc4)CC3)cc2)c1=O (mixture of isomers)
1.89e-05

###

# Protocol Conditions: in n-butanol, 303.15 K
Measured Parameter: solubility (mole fraction)

Need solubility (mole fraction) of CCC(C)n1ncn(-c2ccc(N3CCN(c4ccc(OC[C@H]5CO[C@](Cn6cncn6)(c6ccc(Cl)cc6Cl)O5)cc4)CC3)cc2)c1=O (mixture of isomers) , thanks.
2.87e-05

###

# Protocol Conditions: in n-butanol, 298.15 K
Measured Parameter: solubility (mole fraction)
One number for each entry.

Looking for the measured solubility (mole fraction) of CCC(C)n1ncn(-c2ccc(N3CCN(c4ccc(OC[C@H]5CO[C@](Cn6cncn6)(c6ccc(Cl)cc6Cl)O5)cc4)CC3)cc2)c1=O (mixture of isomers) , can you help?
2.28e-05

###

# Protocol Conditions: in dichloromethane, 308.15 K
Measured Parameter: solubility (mole fraction)
One number for each entry.

Data request, read-out solubility (mole fraction), for CCC(C)n1ncn(-c2ccc(N3CCN(c4ccc(OC[C@H]5CO[C@](Cn6cncn6)(c6ccc(Cl)cc6Cl)O5)cc4)CC3)cc2)c1=O (mixture of isomers)
0.0369
